Each entry below carries its reported inhibition.
TARGET_UNDER_TEST: Rhodopsin kinase GRK7 (Homo sapiens);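 further: mean percent inhibition of GRK7, profiled as part of the GSK PKIS screen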
EXPERIMENTAL_SETUP: at 1 µM
The response must be a number in % with no trailing unit.

COc1cc(N2CCN(C(C)C)CC2)ccc1Nc1nc(Nc2cccc(F)c2C(=O)O)c2cc[nH]c2n1    5.95
CCn1c(-c2nonc2N)nc2cncc(C(=O)NCCNC)c21    7.46
CCN1CCC(C(=O)Nc2n[nH]c3nnc(-c4cccc(F)c4F)cc23)CC1    -1.02
NC(=O)c1ccc2c(-c3ccnc(NCCCO)n3)c(-c3ccc(F)cc3)nn2c1    4.08
Cc1ccc(-c2cc3c(NC(=O)C4CC4)ncnc3o2)cc1    1.88
c1ccc(-c2n[nH]cc2-c2ccnc(-c3ccc(OCCn4ccnc4)cc3)c2)nc1    4.02

Task: What value of measured inhibition is listed for `Fc1ccc(Nc2nccc(-c3c(-c4ccc(C(F)(F)F)cc4)nn4ncccc34)n2)cc1F` ?
Result: -0.32

Task: And the next one, `Cn1c(-c2nonc2N)nc2cnccc21` ?
Result: 2.15

Task: And the next one, `CS(=O)(=O)Nc1ccc(-c2ccc3c(NC(=O)C4CC4)n[nH]c3c2)cc1` ?
Result: 2.36

Task: And the next one, `CN(C)CCNC(=O)Nc1ccc(N(C)c2ccnc(Nc3ccc(CS(C)(=O)=O)cc3)n2)cc1` ?
Result: -0.51

Task: And the next one, `COc1ccc(Nc2ncc(-c3ccccc3)o2)cc1OC` ?
Result: 1.56

Task: And the next one, `COc1ccc(-c2nn3ncccc3c2-c2ccnc(Nc3ccc(F)c(F)c3)n2)cc1` ?
Result: 7.95

Task: And the next one, `CCCNc1cccc(-n2ncc3c(N/N=C/c4ccncc4)ncnc32)c1` ?
Result: 4.45

Task: And the next one, `c1cnn2ncc(-c3ccnc(NCCCN4CCOCC4)n3)c2c1` ?
Result: 15.5

Task: And the next one, `CS(=O)(=O)CCNCc1ccc(-c2ccc3ncnc(Nc4ccc(OCc5cccc(C(F)(F)F)c5)cc4)c3c2)o1` ?
Result: 0.47

Task: And the next one, `COc1ccccc1-c1cc(/C=C2\C(=O)Nc3ncc(Br)cc32)cc(Br)c1O` ?
Result: 57.2

Task: And the next one, `COC(=O)Nc1nc2ccc(Oc3ccc(NC(=O)Nc4cc(C(F)(F)F)ccc4F)cc3)cc2s1` ?
Result: 6.1

Task: And the next one, `Cc1c2ccc(N(C)c3ccnc(Nc4cccc(S(N)(=O)=O)c4)n3)cc2nn1C` ?
Result: 8.97

Task: And the next one, `NS(=O)(=O)c1ccc(N/N=C2\C(=O)Nc3cccc(CCc4ccncc4)c32)cc1` ?
Result: 5.05

Task: And the next one, `CCOc1ccc2c(-c3ccnc(Nc4cc(OC)cc(C(F)(F)F)c4)n3)cnn2n1` ?
Result: 16.9

Task: And the next one, `COc1cccc(-n2ncc3c(N/N=C/c4ccc(C(=O)NCCN(C)C)cc4)ncnc32)c1` ?
Result: -8.73

Task: And the next one, `CS(=O)(=O)CCNCc1ccoc1-c1ccc2ncnc(Nc3ccc(OCc4ccccc4)cc3)c2c1` ?
Result: -0.84

Task: And the next one, `CCS(=O)(=O)c1ccc(OC)c(Nc2ncc(-c3cccc(F)c3)o2)c1` ?
Result: 3.77

Task: And the next one, `Fc1cccc(COc2ccc(Nc3ncncc3C#Cc3ccccc3)cc2Cl)c1` ?
Result: 9.23

Where do these numbers come from? They come from ChEMBL document CHEMBL1961873.
